# thermal conductivity annotations
- details: 360 K; 101.33 kPa; Liquid; Laser flash apparatus
Numeric only. Scale: W/m/K

The examples below pair each entry with its known result.
{"columns": ["compound", "quantity-kind", "measured-number"],
 "data": [
  ["CCCCCCCCCCCCCC(=O)OCC(COC(=O)CCCCCCCCCCCCC)OC(=O)CCCCCCCCCCCCC [1,2,3-propanetriyl tri(tetradecanoate)]", "thermal conductivity", 0.17],
  ["CCCCCCCC(=O)OCC(COC(=O)CCCCCCC)OC(=O)CCCCCCC [1,2,3-propanetriol trioctanoate]", "thermal conductivity", 0.149],
  ["CCCCCCCCCCCC(=O)OCC(COC(=O)CCCCCCCCCCC)OC(=O)CCCCCCCCCCC [1,2,3-propanetriyl tridodecanoate]", "thermal conductivity", 0.16]
]}

Moving on to another compound below.
Just so you know, measured thermal conductivity for CCCCCCCCCC(=O)OCC(COC(=O)CCCCCCCCC)OC(=O)CCCCCCCCC [1,2,3-propanetriyl tridecanoate] came out at 0.151
